- System: HEp-2
- TEST SUMMARY: Inhibitory concentration of the compound was determined against Hep2 cell line
- Assay type: functional, cell-based
- CONDITION DESCRIPTION: Homo sapiens

[
  {
    "STRUCTURE SMILES STRING": "O=C(N(O)c1ccc(Cl)cc1)C12CC3CC(CC(C3)C1)C2",
    "UNITS LABEL": "µM",
    "VALUE QUALIFIER": ">",
    "IC50": 100
  },
  {
    "STRUCTURE SMILES STRING": "O=C(C1CCCCC1)N(O)c1ccc(Cl)cc1",
    "UNITS LABEL": "µM",
    "VALUE QUALIFIER": "=",
    "IC50": 40
  },
  {
    "STRUCTURE SMILES STRING": "O=C(C1CC1)N(O)c1ccc(Cl)cc1",
    "UNITS LABEL": "µM",
    "VALUE QUALIFIER": ">",
    "IC50": 100
  },
  {
    "STRUCTURE SMILES STRING": "O=C(CC1CCCCC1)N(O)c1ccc(Cl)cc1",
    "UNITS LABEL": "µM",
    "VALUE QUALIFIER": "=",
    "IC50": 9
  },
  {
    "STRUCTURE SMILES STRING": "O=C(CCC1CCCC1)N(O)c1ccc(Cl)cc1",
    "UNITS LABEL": "µM",
    "VALUE QUALIFIER": "=",
    "IC50": 20
  },
  {
    "STRUCTURE SMILES STRING": "O=C(CCC1CCCCC1)N(O)c1ccc(Cl)cc1",
    "UNITS LABEL": "µM",
    "VALUE QUALIFIER": "=",
    "IC50": 30
  },
  {
    "STRUCTURE SMILES STRING": "O=C(CC1CCCCC1)N(O)c1ccccc1",
    "UNITS LABEL": "µM",
    "VALUE QUALIFIER": ">",
    "IC50": 100
  }
]
